Data provenance is patent US20240270762A1.

For reference, MIC measured on E. coli AG100A:

Some compounds with known MIC results, for comparison:
compound: O=C(N[C@@H](C(=O)N[C@H]1Cc2cccc(C(=O)O)c2OB1O)c1ccc(P(=O)(O)O)cc1)c1cnc2ccnn2c1 (single isomer, unassigned) [Example 187]
MIC: > 128 mg/L
//
compound: CS(=O)(=O)N1CCN(C(=O)N[C@@H](C(=O)N[C@H]2Cc3cccc(C(=O)O)c3OB2O)c2ccc(P(=O)(O)O)cc2)C1=O (single isomer, unassigned) [Example 6]
MIC: 8 to 16 mg/L

Here is another compound to look at.
Q: // fetch E. coli AG100A MIC for CCN1CCN(C(=O)NC(C(=O)N[C@H]2Cc3cccc(C(=O)O)c3OB2O)c2ccc(P(=O)(O)O)c(F)c2O)C(=O)C1=O (stereo partly drawn) [Example 198]
Result: 32 to 64 mg/L
